Attribute: selectivity ratio h5HT1B
# Assay target: human 5HT1B (Homo sapiens)
# Construct: expressed in transfected cells
# Sequence (P28222 whole entry): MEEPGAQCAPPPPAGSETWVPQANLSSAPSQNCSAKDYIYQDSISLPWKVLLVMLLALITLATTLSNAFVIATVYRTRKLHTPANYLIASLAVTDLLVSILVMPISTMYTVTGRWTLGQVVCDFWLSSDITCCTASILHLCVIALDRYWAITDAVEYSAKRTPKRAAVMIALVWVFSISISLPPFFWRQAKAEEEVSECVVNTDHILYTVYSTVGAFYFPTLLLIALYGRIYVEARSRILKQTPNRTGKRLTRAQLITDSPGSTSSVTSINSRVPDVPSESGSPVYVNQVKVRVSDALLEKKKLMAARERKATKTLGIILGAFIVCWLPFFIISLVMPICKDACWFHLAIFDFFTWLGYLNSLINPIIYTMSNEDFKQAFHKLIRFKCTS
# Measurement protocol: Radioligand binding, 5HT1B receptor ([3H]-serotonin)
# Condition description: Table 8; Ki h5HT1B divided by Ki hGAL3
# Experimental: Human 5HT1B, 5HT1D, 5HT1E, 5HT1F, and 5HT7 Receptors: The cell lysates of LM(tk-) clonal cell line stably transfected with the genes encoding each of these 5HT receptor-subtypes were prepared as described above. […] Nonspecific binding was determined in the presence of 10 µM serotonin. […] Binding data were analyzed using nonlinear regression and statistical techniques available in the GraphPAD Prism package (San Diego, CA). […]
Assay readout: selectivity ratio h5HT1B

O=C1C(=Nc2ccc(Cl)cc2)c2ccccc2N1c1ccccc1 [Example 97] | >30
Cc1ccc(Nc2cc(N3CCCCC3)nc(N(C)CCc3c[nH]c4ccccc34)n2)cc1 [Example 11] | 1
Cc1ccc(Nc2cc(N3CCCCC3)nc(N3CCN(c4ncccc4C(F)(F)F)CC3)n2)cc1 [Example 34] | >30
COc1cccc(Nc2cc(N3CCCCC3)nc(N(C)CCc3c[nH]c4ccccc34)n2)c1 [Example 17] | 5
Cc1ccc(Nc2cc(N(C)C)nc(N(C)CCc3c[nH]c4ccccc34)n2)cc1 [Example 77] | 5
O=C1C(=Nc2ccc(Br)cc2)c2ccccc2N1c1ccccc1 [Example 98] | >30
COC[C@@H]1[C@@H](c2ccccc2)OCCN1c1nc(Nc2ccc(C)cc2)cc(N2CCCCC2)n1 [Example 49] | >30
O=C1C(=Nc2ccc(C(F)(F)F)cc2)c2ccccc2N1c1ccccc1 [Example 95] | >100
